Target: Mtb IMPDH (Mycobacterium tuberculosis, UniProt P9WKI7)
Sequence (P9WKI7 whole entry, looked up): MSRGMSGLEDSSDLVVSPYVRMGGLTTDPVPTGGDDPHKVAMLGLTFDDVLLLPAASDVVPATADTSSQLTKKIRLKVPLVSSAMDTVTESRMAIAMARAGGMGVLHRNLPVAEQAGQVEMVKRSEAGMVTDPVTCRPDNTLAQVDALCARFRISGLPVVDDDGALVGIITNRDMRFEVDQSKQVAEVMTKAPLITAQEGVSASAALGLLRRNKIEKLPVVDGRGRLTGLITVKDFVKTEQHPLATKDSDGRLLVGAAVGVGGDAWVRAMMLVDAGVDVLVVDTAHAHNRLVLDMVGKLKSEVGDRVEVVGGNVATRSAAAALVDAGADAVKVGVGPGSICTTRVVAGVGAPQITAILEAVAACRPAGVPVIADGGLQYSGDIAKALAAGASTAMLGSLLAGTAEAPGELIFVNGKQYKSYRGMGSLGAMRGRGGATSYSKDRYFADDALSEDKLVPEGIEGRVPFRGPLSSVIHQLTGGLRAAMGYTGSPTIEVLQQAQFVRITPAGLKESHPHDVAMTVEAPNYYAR
pIC50: −log10 of the molar value.
The label depends only on pIC50: t if it is at least 6, f if it is smaller.

{"columns": ["MOLECULE", "DISCRETE_LABEL"],
 "data": [
  ["O=C(c1ccccc1)N1CCN(S(=O)(=O)c2cccc3cnccc23)CC1", "f"],
  ["O=C(Nc1ccc(Cl)c(C(F)(F)F)c1)N1CCN(S(=O)(=O)c2cccc3cnccc23)CC1", "t"],
  ["Cc1ccc(NC(=O)N2CCN(S(=O)(=O)c3cccc4cnccc34)CC2)c([N+](=O)[O-])c1", "t"],
  ["O=C(NC1CCN(S(=O)(=O)c2cccc3cnccc23)CC1)C1CCCCC1", "f"],
  ["O=C(Nc1ccc2c(c1)OCO2)N1CCCN(S(=O)(=O)c2cccc3cnccc23)CC1", "t"],
  ["O=C(Nc1cccc(C(F)(F)F)c1)N1CCN(S(=O)(=O)c2cccc3cnccc23)CC1", "t"],
  ["O=C(CC1CCCCC1)N1CCN(S(=O)(=O)c2cccc3cnccc23)CC1", "t"],
  ["N#Cc1cccc(NC(=O)N2CCN(S(=O)(=O)c3cccc4cnccc34)CC2)c1", "t"],
  ["O=C(Nc1ccc(F)c(Cl)c1)N1CCN(S(=O)(=O)c2cccc3cnccc23)CC1", "t"],
  ["Cc1cccc(Cl)c1NC(=O)N1CCN(S(=O)(=O)c2cccc3cnccc23)CC1", "f"],
  ["COc1ccc(CC(=O)N2CCN(S(=O)(=O)c3cccc4cnccc34)CC2)c(OC)c1", "f"],
  ["N#Cc1ccc(C(=O)N2CCN(S(=O)(=O)c3cccc4cnccc34)CC2)cc1", "f"],
  ["Cc1ccccc1CNC(=O)N1CCN(S(=O)(=O)c2cccc3cnccc23)CC1", "t"],
  ["Cc1ccc(NC(=O)N2CCN(S(=O)(=O)c3cccc4cnccc34)CC2)cc1Cl", "f"],
  ["O=C(Nc1ccc(Cl)cc1)N1CCN(S(=O)(=O)c2cccc3cnccc23)CC1", "f"],
  ["O=C(C1CCCCC1)N1CCN(S(=O)(=O)c2cccc3cnccc23)CC1", "t"],
  ["O=C(Cc1cccc(O)c1)N1CCN(S(=O)(=O)c2cccc3cnccc23)CC1", "f"],
  ["O=C(Nc1ccc2c(c1)OCO2)N1CCN(S(=O)(=O)c2cccc3cnccc23)CC1", "t"],
  ["O=C(CC1CCC2(CC1)OCCO2)N1CCN(S(=O)(=O)c2cccc3cnccc23)CC1", "f"],
  ["COc1cccc(CNC(=O)N2CCN(S(=O)(=O)c3cccc4cnccc34)CC2)c1", "t"],
  ["O=C(C1CCCCC1)N1CCN(S(=O)(=O)c2cccc3ccccc23)CC1", "f"],
  ["CC(C)(C)C(=O)N1CCN(S(=O)(=O)c2cccc3cnccc23)CC1", "f"],
  ["Cc1cccc(CC(=O)N2CCN(S(=O)(=O)c3cccc4cnccc34)CC2)c1", "f"],
  ["O=C(NCCNS(=O)(=O)c1cccc2cnccc12)C1CC1", "f"],
  ["N#Cc1cccc(CC(=O)N2CCN(S(=O)(=O)c3cccc4cnccc34)CC2)c1", "f"],
  ["O=C(C1CCCCC1)N1CCC(NS(=O)(=O)c2cccc3cnccc23)CC1", "f"],
  ["COc1cccc(CC(=O)N2CCN(S(=O)(=O)c3cccc4cnccc34)CC2)c1", "f"],
  ["CC1CN(S(=O)(=O)c2cccc3cnccc23)CCN1C(=O)C1CCCCC1 (stereo not shown)", "f"]
]}

* * *

Biological target: UniProt:P9WKI7
pIC50: −log10 of the molar value.
EXPERIMENTAL_ENDPOINT: pIC50

{"columns": ["COMPOUND", "EXPERIMENTAL_TARGET", "EXPERIMENTAL_ENDPOINT", "READING_QUALIFIER", "VALUE"],
 "data": [
  ["N#Cc1cccc(C(=O)N2CCN(S(=O)(=O)c3cccc4cnccc34)CC2)c1", "UniProt:P9WKI7", "pIC50", "=", 5.07],
  ["CC1CN(S(=O)(=O)c2cccc3cnccc23)CCN1C(=O)Nc1ccc2c(c1)OCO2 (stereo not shown)", "UniProt:P9WKI7", "pIC50", "=", 6.92],
  ["O=C(Cc1ccc([N+](=O)[O-])cc1)N1CCN(S(=O)(=O)c2cccc3cnccc23)CC1", "UniProt:P9WKI7", "pIC50", "=", 5.28],
  ["O=C(Nc1ccc2c(c1)OCO2)N1CCC(NS(=O)(=O)c2cccc3cnccc23)CC1", "UniProt:P9WKI7", "pIC50", "<", 4.00],
  ["COc1cc(C(=O)N2CCN(S(=O)(=O)c3cccc4cnccc34)CC2)cc(OC)c1OC", "UniProt:P9WKI7", "pIC50", "=", 4.92],
  ["O=C(C1CCCCCC1)N1CCN(S(=O)(=O)c2cccc3cnccc23)CC1", "UniProt:P9WKI7", "pIC50", "=", 6.08],
  ["CC1CCCCC1C(=O)N1CCN(S(=O)(=O)c2cccc3cnccc23)CC1 (stereo not shown)", "UniProt:P9WKI7", "pIC50", "=", 7.08]
]}

* * *

Entries with reported pIC50 on Mtb IMPDH (Mycobacterium tuberculosis, UniProt P9WKI7)
pIC50: −log10 of the molar value.
EXPERIMENTAL_ENDPOINT: pIC50

{"columns": ["ITEM_SMILES", "READING_QUALIFIER", "VALUE"],
 "data": [
  ["O=C(C1CCCCC1)N1CCN(S(=O)(=O)c2ccc3ccccc3c2)CC1", "=", 5.80],
  ["O=C(NCCNS(=O)(=O)c1cccc2cnccc12)C1CCC1", "=", 5.57],
  ["Cc1cc2c(S(=O)(=O)N3CCN(C(=O)C4CCCCC4)CC3)cccc2cn1", "<", 4.00],
  ["O=C(NCCNS(=O)(=O)c1cccc2cnccc12)c1cc([N+](=O)[O-])cc([N+](=O)[O-])c1", "=", 6.52]
]}

* * *

Listed here: items and their measured IC50.
Target: Mtb IMPDH (Mycobacterium tuberculosis, UniProt P9WKI7)
Construct: made in house
Test: IMPDH biochemical assay (inhibition of Mtb GuaB2)
Details: Mtb IMPDH (GuaB2) enzyme

{"columns": ["COMPOUND", "UNIT_ABBREV", "IC50"],
 "data": [
  ["O=S(=O)(c1cccc2cnccc12)N1CCN(C(=S)Nc2ccc3c(c2)OCO3)CC1 [Compound 42]", "nM", 1100],
  ["O=C(OCc1ccccc1)N1CCN(S(=O)(=O)c2cccc3cnccc23)CC1 [Compound 49]", "nM", 800],
  ["O=C(Nc1cccc(Cl)c1Cl)N1CCN(S(=O)(=O)c2cccc3cnccc23)CC1 [Compound 37]", "nM", 900],
  ["O=C(c1cccc([N+](=O)[O-])c1)N1CCN(S(=O)(=O)c2cccc3cnccc23)CC1 [Compound 18]", "nM", 1100],
  ["O=C(Cc1ccc(F)cc1)N1CCN(S(=O)(=O)c2cccc3cnccc23)CC1 [Compound 29]", "nM", 680],
  ["O=C(c1cc([N+](=O)[O-])cc([N+](=O)[O-])c1)N1CCN(S(=O)(=O)c2cccc3cnccc23)CC1 [Compound 19]", "nM", 1400]
]}
